B1: BTBD10 (parent)
chain: FVYENAKEGARNIRTSERVTLIVD

# Variants of: B1
# procedure-text: protein stability index of a GFP-peptide fusion (GPS, HEK-293T) (PSI 1-6); higher = more stable;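 further: lentivirally expressed fusions sorted by FACS into six bins by GFP to DsRed ratio, PSI derived from sequencing read proportions per bin multiplied by bin number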
# condition: c terminus: a fixed tail appended
Please respond with reported protein stability index for every item in the list.
Numbers only.

Example results:
V2S : 3.27
I22Q : 2.31

For each of the variants below, note its protein stability index.
1. V19Q
2. N12L
3. N12S
4. A10I
5. A6C
6. A6L

1. 2.6
2. 1.34
3. 1.97
4. 2
5. 1.82
6. 1.69

Take each entry in turn and give its protein stability index.
1. G9M
2. V19A
3. E8Q
4. E17H
5. R18W
6. R14W

1: 2.47; 2: 2.45; 3: 1.8; 4: 1.8; 5: 2.27; 6: 2.87

Give measured protein stability index for every item shown.
1. A10Q
2. A10S
3. F1G
4. Y3N
5. Y3S
6. Y3K

1: 2.05; 2: 2.01; 3: 3.33; 4: 2.48; 5: 1.96; 6: 2.08

Batch request: protein stability index per item, same order as input.
1. V23S
2. R14N

2.25
2.32
